Target: Calpain I (Homo sapiens)
Construct: made in house
Experiment: Inhibition of calpain I activity (Succ-Leu-Tyr-MNA substrate hydrolysis, fluorescence)
Type: biochemical
Settings: Table II; calpain I, 0.2 mM Succ-Leu-Tyr-MNA, pH 7.5; * mixture of diastereomers, a,b single diastereomers; read-out: IC50
Experimental: To evaluate inhibitory activity, stock solutions (40 times concentrated) of each compound to be tested were prepared in 100% anhydrous DMSO and […] of each inhibitor preparation were aliquoted into each of three wells of a 96-well plate. Calpain I, prepared by a modification of the method of W. J. Lee et al. (Biochem. […] Substrate hydrolysis was monitored every 5 minutes for a total of 30 minutes using a Fluoroskan II fluorescence plate reader. […]
pIC50: −log10 of the molar value.
Parameter threshold = 8. Response is yes when pIC50 meets or exceeds it, else no.

Is pIC50 for CC(C)N1C(C(=O)N[C@H](C=O)Cc2ccccc2)Cc2cc3c(cc2S1(=O)=O)OCCO3 (some centres unmarked) [Cpd 12u] at or above 8?
no

Please indicate if the recorded pIC50 for CN1C(C(=O)N[C@H](C=O)CCCCNS(=O)(=O)c2ccccc2)Cc2cc3c(cc2S1(=O)=O)OCCO3 (some centres unmarked) [Cpd 12x] meets or exceeds 8.
no

Determine whether this compound has pIC50 no lower than 8: CN1C(C(=O)N[C@H](C=O)Cc2ccccc2)Cc2cc(Cl)ccc2S1(=O)=O (some centres unmarked) [Cpd 12p]
yes

---
I'd appreciate it if you could say whether COc1cc2c(cc1OC)S(=O)(=O)N(Cc1ccccc1)C(C(=O)N[C@H](C=O)Cc1ccccc1)C2 (some centres unmarked) [Cpd 12h] has pIC50 at least equal to 8.
no

Kindly determine if pIC50 recorded for COc1cc2c(cc1OC)S(=O)(=O)N(C)C(C(=O)N[C@H](C=O)Cc1ccccc1)C2 (some centres unmarked) [Cpd 12f] is above or exactly 8.
no

====

biological target: Calpain I (Homo sapiens); construct: made in house; test: Inhibition of calpain I activity (Succ-Leu-Tyr-MNA substrate hydrolysis, fluorescence); type: biochemical; details: Table II; calpain I, 0.2 mM Succ-Leu-Tyr-MNA, pH 7.5; * mixture of diastereomers, a,b single diastereomers; read-out: IC50
recordedMetric: IC50

Known IC50 results, listed for orientation:
Query the reported IC50 for Calpain I (Homo sapiens); item: CC(C)CN1C(C(=O)N[C@H](C=O)Cc2ccccc2)Cc2cc(Cl)ccc2S1(=O)=O (stereo partly shown) [Cpd 12n]
~200 nM

Item CCNC(=O)C(=O)[C@H](Cc1ccccc1)NC(=O)C1Cc2cc(Cl)ccc2S(=O)(=O)N1C (stereo partly shown) [Cpd 14A] with Calpain I (Homo sapiens) - IC50?
~1000 nM

Others:
Form field - read-out: IC50; system: Calpain I (Homo sapiens); submitted item: COc1cc2c(cc1OC)S(=O)(=O)NC(C(=O)N[C@H](C=O)Cc1ccccc1)C2 (single isomer, unassigned) [Cpd 12d]
~700 nM

What measured IC50 is associated with COc1cc2c(cc1OC)S(=O)(=O)N(Cc1ccccc1)C(C(=O)N[C@H](C=O)Cc1ccccc1)C2 (stereo partly shown) [Cpd 12g] on Calpain I (Homo sapiens)?
~1000 nM

====

Biological target: Calpain I (Homo sapiens, UniProt P07384)
Construct: made in house
Sequence (P07384 1-714): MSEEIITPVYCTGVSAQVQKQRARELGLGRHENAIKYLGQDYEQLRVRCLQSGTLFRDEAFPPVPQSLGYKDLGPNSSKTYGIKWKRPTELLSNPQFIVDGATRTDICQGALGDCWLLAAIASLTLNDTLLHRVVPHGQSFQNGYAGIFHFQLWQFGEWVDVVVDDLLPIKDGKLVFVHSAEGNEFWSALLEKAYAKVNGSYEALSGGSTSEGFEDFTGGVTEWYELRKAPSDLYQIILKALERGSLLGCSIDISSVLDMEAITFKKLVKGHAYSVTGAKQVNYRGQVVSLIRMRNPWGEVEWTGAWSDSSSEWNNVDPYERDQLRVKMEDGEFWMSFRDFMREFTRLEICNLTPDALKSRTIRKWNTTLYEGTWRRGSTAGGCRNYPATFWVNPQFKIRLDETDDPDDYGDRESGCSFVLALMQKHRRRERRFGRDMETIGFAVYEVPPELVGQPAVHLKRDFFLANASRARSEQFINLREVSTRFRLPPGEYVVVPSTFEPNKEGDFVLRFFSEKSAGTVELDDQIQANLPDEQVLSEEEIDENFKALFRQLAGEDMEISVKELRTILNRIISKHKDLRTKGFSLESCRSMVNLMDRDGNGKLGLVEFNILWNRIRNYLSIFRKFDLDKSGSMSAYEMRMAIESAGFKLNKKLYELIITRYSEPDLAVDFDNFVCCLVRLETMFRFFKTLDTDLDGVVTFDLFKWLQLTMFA
Sequence (P04632 1-268 partner): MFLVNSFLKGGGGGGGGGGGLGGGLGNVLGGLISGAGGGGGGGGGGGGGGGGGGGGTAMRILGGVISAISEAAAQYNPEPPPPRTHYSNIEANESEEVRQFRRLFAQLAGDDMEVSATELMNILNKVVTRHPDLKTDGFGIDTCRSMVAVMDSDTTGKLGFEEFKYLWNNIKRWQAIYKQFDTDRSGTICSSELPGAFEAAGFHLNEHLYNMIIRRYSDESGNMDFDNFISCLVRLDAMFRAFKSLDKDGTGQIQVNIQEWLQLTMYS
Experiment: Inhibition of calpain I activity (Succ-Leu-Tyr-MNA substrate hydrolysis, fluorescence)
Assay type: biochemical
Conditions: Table III; calpain I, 0.2 mM Succ-Leu-Tyr-MNA, pH 7.5; * mixture of diastereomers, a,b single diastereomers; read-out: IC50
recordedMetric: IC50

// returns reported IC50 for input CCN1C(C(=O)N[C@@H](Cc2ccccc2)C(=O)C(=O)NCCNS(=O)(=O)c2ccccc2)Cc2cc3c(cc2S1(=O)=O)OCCO3 (stereo partly shown) [Cpd 14X]
40 nM

Fill in: IC50 of CCN1C(C(=O)N[C@@H](Cc2ccccc2)C(=O)C(=O)NCCCNS(=O)(=O)c2ccc(F)cc2)Cc2cc3c(cc2S1(=O)=O)OCCO3 (stereo partly shown) [Cpd 14Z] is ___
50 nM

// query IC50 value for entry CCN1C(C(=O)N[C@@H](Cc2ccccc2)C(=O)C(=O)NCCNS(=O)(=O)c2ccc(Cl)c(Cl)c2)Cc2cc3c(cc2S1(=O)=O)OCCO3 (stereo partly shown) [Cpd 14V]
56 nM

Now for a further molecule.
Which measured IC50 value corresponds to CCCCNC(=O)C(=O)[C@H](Cc1ccccc1)NC(=O)C1Cc2cc3c(cc2S(=O)(=O)N1)OCCO3 (stereo partly shown) [Cpd 14AD] ?
~200 nM

====

Molecular target: Calpain I (Homo sapiens, UniProt P07384)
Construct: made in house
Sequence (P07384 1-714): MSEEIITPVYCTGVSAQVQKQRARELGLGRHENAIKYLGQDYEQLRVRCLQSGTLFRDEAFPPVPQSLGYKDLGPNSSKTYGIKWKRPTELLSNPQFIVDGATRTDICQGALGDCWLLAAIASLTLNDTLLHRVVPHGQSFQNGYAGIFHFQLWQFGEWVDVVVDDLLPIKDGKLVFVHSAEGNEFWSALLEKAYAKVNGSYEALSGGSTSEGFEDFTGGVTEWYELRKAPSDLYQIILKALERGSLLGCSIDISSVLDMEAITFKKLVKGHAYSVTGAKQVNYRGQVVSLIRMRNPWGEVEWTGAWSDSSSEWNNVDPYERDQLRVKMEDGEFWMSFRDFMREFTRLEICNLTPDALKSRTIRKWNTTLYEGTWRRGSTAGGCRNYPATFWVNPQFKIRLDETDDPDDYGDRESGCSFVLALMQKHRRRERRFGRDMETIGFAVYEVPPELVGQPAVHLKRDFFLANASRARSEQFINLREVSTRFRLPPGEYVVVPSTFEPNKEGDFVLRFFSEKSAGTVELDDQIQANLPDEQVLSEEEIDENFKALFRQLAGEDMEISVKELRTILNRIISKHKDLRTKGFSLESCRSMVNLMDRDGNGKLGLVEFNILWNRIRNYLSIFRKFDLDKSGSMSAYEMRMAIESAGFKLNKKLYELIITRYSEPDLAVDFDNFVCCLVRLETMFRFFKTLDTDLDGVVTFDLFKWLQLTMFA
Sequence (P04632 1-268 partner): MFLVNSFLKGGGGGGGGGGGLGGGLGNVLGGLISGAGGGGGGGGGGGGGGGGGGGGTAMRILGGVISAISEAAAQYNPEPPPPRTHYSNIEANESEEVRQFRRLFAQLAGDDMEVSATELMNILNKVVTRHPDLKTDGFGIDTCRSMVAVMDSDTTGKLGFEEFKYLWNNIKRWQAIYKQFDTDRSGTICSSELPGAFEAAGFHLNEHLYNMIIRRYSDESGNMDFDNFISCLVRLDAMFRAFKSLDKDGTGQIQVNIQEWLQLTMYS
Experiment: Inhibition of calpain I activity (Succ-Leu-Tyr-MNA substrate hydrolysis, fluorescence)
Type: biochemical
Conditions: Table II; calpain I, 0.2 mM Succ-Leu-Tyr-MNA, pH 7.5; * mixture of diastereomers, a,b single diastereomers; read-out: IC50
pIC50: −log10 of the molar value.
# key: entry, value: pIC50

Sample answers from the record:
Give its pIC50 value. Item: CN1C(C(=O)N[C@H](C=O)Cc2ccccc2)Cc2cc(Cl)ccc2S1(=O)=O (stereo partly drawn) [Cpd 12q]
7.82

Quick one: pIC50 for CN1C(C(=O)N[C@H](C=O)Cc2ccccc2)Cc2cc(N3CCOCC3)ccc2S1(=O)=O (stereo partly drawn) [Cpd 12z] ?
~6.30

Let's switch to this molecule now.
pIC50 for COc1cc2c(cc1OC)S(=O)(=O)NC(C(=O)N[C@H](C=O)Cc1ccccc1)C2 (single isomer, unassigned) [Cpd 12c] ?
~6.10
